// data source = patent US20240336572A1

- ASSAYED TARGET: AMPK 221 (Homo sapiens, UniProt O43741+P54646)
- Construct: open reading frames encoding the full-length α2, β2 and δ1 subunits of human AMPK
- Sequence (P54646 whole entry): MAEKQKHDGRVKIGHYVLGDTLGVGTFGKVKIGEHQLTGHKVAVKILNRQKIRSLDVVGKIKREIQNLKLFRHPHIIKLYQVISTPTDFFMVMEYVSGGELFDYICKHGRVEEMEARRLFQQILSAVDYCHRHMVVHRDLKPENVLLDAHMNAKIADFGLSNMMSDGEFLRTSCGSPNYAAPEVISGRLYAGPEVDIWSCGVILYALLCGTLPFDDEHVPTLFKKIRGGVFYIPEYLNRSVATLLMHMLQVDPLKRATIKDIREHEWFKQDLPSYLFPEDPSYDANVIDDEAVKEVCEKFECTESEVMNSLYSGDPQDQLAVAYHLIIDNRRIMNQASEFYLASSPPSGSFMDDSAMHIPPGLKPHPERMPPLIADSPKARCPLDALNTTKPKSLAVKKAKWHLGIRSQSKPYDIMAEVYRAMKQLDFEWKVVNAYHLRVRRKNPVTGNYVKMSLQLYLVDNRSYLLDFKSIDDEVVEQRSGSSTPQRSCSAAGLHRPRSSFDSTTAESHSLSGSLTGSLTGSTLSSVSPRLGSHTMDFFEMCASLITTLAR
- Sequence (O43741 whole entry): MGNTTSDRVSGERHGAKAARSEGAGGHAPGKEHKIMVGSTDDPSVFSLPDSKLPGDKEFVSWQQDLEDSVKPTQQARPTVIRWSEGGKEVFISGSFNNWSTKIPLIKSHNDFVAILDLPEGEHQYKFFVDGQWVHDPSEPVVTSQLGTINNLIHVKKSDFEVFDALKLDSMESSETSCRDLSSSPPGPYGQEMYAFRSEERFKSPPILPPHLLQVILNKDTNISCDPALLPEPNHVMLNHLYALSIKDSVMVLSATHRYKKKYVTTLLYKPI
- Sequence (P54619 whole entry partner): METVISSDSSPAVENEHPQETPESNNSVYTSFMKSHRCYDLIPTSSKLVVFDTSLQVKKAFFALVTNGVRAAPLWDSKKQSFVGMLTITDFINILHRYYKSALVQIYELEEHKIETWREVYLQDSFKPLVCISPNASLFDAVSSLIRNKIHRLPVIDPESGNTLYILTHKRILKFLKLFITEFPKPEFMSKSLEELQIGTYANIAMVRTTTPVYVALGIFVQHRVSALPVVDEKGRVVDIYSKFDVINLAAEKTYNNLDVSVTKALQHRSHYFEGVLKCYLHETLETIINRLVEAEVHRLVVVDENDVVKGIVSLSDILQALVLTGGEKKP
- EXPERIMENT NOTES: Biochemical profiling of AMPK activators by AMPK221 (HTRF/TR-FRET assay, SAMS peptide, PP2A dephosphorylation protection)
- CONDITION LABEL: phosphorylated AMPK 221 (α2β2δ1); 11 point dilution, duplicate; 4-parameter fit
pEC50: −log10 of the molar value.
TEST READOUT: pEC50

A selection of reference data follows.
- STRUCTURE SMILES STRING: "Cc1ccc(-c2ccc(-c3cc4c(CCC(=O)O)n[nH]c4cc3Cl)cc2)c(O)c1"
  pEC50: 6.71
- STRUCTURE SMILES STRING: "CS(=O)(=O)c1ccc(-c2ccc(-c3cc4c(CCC(=O)O)n[nH]c4cc3Cl)cc2)cc1"
  pEC50: 6.69

[I] Cc1cccc(O)c1-c1ccc(-c2cc3c(CCCC(=O)O)n[nH]c3cc2Cl)cc1
[II] NC(=O)c1ccc(-c2ccc(-c3cc4c(CCC(=O)O)n[nH]c4cc3Cl)cc2)cc1
# argmax over pEC50 for candidates I and II Give the label under which the chosen entry appears.
II
(II: 7.43, I: 6.64)

----------
- ASSAYED TARGET: AMPK 111 (Homo sapiens, UniProt Q13131+Q9Y478)
- Construct: open reading frames encoding the full-length α1, β1 and δ1 subunits of human AMPK; made in house; host or cells: E. coli BL21-CodonPlus (DE3)-RIPL, pET-14b
- Sequence (Q13131 whole entry, one chain of several): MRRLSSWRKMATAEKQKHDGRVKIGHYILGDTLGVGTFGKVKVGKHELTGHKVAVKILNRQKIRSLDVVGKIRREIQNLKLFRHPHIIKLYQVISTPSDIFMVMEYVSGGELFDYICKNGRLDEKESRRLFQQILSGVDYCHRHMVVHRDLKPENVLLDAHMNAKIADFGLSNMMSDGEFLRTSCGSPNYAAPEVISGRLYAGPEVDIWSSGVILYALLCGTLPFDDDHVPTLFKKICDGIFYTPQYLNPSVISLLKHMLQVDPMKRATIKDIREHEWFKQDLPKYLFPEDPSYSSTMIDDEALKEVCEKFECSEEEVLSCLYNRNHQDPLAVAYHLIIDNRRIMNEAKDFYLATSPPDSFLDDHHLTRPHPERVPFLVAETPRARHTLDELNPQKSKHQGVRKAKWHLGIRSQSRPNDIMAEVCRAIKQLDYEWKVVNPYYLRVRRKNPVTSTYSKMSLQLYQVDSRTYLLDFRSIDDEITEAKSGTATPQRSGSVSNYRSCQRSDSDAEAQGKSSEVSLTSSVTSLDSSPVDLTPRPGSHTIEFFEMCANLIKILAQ
- Sequence (Q9Y478 whole entry, one chain of several): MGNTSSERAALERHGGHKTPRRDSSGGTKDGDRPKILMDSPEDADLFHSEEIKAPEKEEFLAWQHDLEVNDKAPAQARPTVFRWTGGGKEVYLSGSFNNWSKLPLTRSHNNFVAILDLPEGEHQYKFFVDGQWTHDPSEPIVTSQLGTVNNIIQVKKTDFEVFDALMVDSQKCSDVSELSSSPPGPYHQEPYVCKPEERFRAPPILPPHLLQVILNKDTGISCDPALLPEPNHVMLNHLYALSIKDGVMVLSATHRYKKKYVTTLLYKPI
- EXPERIMENT NOTES: Biochemical profiling of AMPK activators by AMPK111 (HTRF/TR-FRET assay, SAMS peptide, PP2A dephosphorylation protection)
- CONDITION LABEL: phosphorylated AMPK 111; maximal activation
TEST READOUT: Emax (%)

- MOLECULE: "CN(C)C(=O)c1ccc(-c2ccc(-c3cc4c(CCC(=O)O)n[nH]c4cc3Cl)cc2)c(O)c1"
  Emax (%): 72
- MOLECULE: "O=C(O)CCc1n[nH]c2cc(Cl)c(-c3ccc(-c4c(O)cccc4F)cc3)cc12"
  Emax (%): 76
- MOLECULE: "CSc1ccc(-c2ccc(-c3cc4c(CCC(=O)O)n[nH]c4cc3Cl)cc2)c(O)c1"
  Emax (%): 56
- MOLECULE: "NS(=O)(=O)c1ccc(-c2ccc(-c3cc4c(CCC(=O)O)n[nH]c4cc3Cl)cc2)cc1"
  Emax (%): 85
- MOLECULE: "O=C(O)CCc1n[nH]c2cc(Cl)c(-c3ccc(-c4ccc5c(c4O)OCC5)cc3)cc12"
  Emax (%): 71
- MOLECULE: "O=C(O)CCc1n[nH]c2cc(Cl)c(-c3ccc(-c4cnsc4)cc3)cc12"
  Emax (%): 79
- MOLECULE: "CC(=O)NCc1ccc(-c2ccc(-c3cc4c(CCC(=O)O)n[nH]c4cc3Cl)cc2)cc1"
  Emax (%): 66
- MOLECULE: "CS(=N)(=O)c1ccc(-c2ccc(-c3cc4c(CCC(=O)O)n[nH]c4cc3Cl)cc2)cc1 (centres unmarked)"
  Emax (%): 86
- MOLECULE: "Cc1cccc(O)c1-c1ccc(-c2cc3c(CCCC(=O)O)n[nH]c3cc2Cl)cc1"
  Emax (%): 75
- MOLECULE: "Cc1ccc(-c2ccc(-c3cc4c(CCC(=O)O)n[nH]c4cc3Cl)cc2)s1"
  Emax (%): 48
- MOLECULE: "O=C(CCc1n[nH]c2cc(Cl)c(-c3ccc(-c4ccccc4O)cc3)cc12)OC1OC(C(=O)O)C(O)C(O)C1O (centres unmarked)"
  Emax (%): 67
